// provenance: the nanobody polyreactivity screen of Harvey et al. (2022)

Experiment: yeast display, Sf9 membrane polyspecificity reagent, FACS + sequencing; frameworks hold sequencing errors
Measured Quantity: polyreactivity (PSR sort gate)

- QVHLVESGGGLDQAGGSLRLSCAASGRIFPLYAMGWYRQAPGKERELVAAISSGGTTYYADSVKGRFTISRDNAKNTVYLQMHSLKPEDTAVYYCARRPAQRWGRFDYWGQGTQVTVSS: low polyreactivity
- QVQLVESGGGLVQAGGSLRLSCAASGSTFAVNAMRSYRQAPGKEREFVAAISFGTGSTYYADSVKGRFTISRDNAKKTVYLQMNSLKPEDTAVYYCNAEASGYYWWWGYDYWGQGTQVTVSS: low polyreactivity
- QVQLVESGGGLVQAGGSLRLSCAASGITFIVKTMGWYRQAPGKEREFVATISANSDGTYYADSVKGRFTISRDNAKNTVYLQMNSLKPEDTAVYYWGQGTQVTVSS: low polyreactivity

----------
Experiment: yeast display, Sf9 membrane polyspecificity reagent, FACS + sequencing; frameworks hold sequencing errors
Measured Quantity: polyreactivity (PSR sort gate)

- QVQLVESGGGLVQAGGSLRLSCAASGIIFGRYAMGWYRQAPGKERELVAAINASGGSTYYADSVKGRFTISRDNAKNTVYLQMNSLKPEDTAVYYCATVHVWGFVYVGSGYWGQGTQVTVSS: high polyreactivity
- QVQLVESGGGLVQAGGSLRLSCAASGSTFLNYAMGWYRQAPGKERELVAAISGRGGRTYYADSVKGRFTISRDNAKNTVYLQMNSLKPEDTAFYYCAARIWVSYTSYDYWGQGTQVTVSS: high polyreactivity
- QVQLVESGGGLVQAGGSLRLSCAASGITLPVYGKGWYRQAPGKERELVAVIDIVGITNYADSVKGRFTISRDNAKNTVYLQMNSLKPEDTAVYYCAKRYVYIADGGEYYYWGQGTQVTVSS: low polyreactivity
- QVQLVESGGGLVQAGGSLRLSCAASGRTFKYYAMGWYRQAPGKERELVAAISSGGSTYYADSVKGRFTISRDNAKNTVYLQMNSLKPEDTAVYYCAAYSSYFRRRKWGYDYWGQGTQVTVSS: high polyreactivity
- QVQLVESGGGLVQAGGSLRLSCAASGSIFGSYVMGWYRQAPGKERELVAAISKSGGRTYYADSVKGRFTISRDNAKNTVYLQMKSLKPEDTAVYYCAVLPRVKDGTGGDYWGHGTQVTVSS: high polyreactivity
- QVQLVESGGGLVQAGGSLRLSCAASGIIFLWYAMRWYRQAPGKERELVAAISRTGSSTYYADSVKGRFTISRDTAKNTVYLQMNSLKPEDTAVYYCAAAYYSNRSWRFDYWGQGTQVTVSS: high polyreactivity
- QVQLVESGVGLVQAGGSLRLSCAASGSIFVPNTMRWYRQAPGKERELVAAITGGGSTDYADSVKGRFTISRDNAKNTVYLQMNSLKPEDTAVYYCNKDYWRDVAQDVLDGYDYWGQGTQVTVSS: low polyreactivity
- QVQLVESGGGLVQAGGSLRLSCAASGSIFDGNAMVSYRQAPGKDRELVADISRGGSTYYADSVKGPFTISRDNAKNTVYLQMNSLTPEDTAVYYCNVEFFFWPYEYGYWGQGTQVTVSS: low polyreactivity
- QVQLQESVGGLVQAGGSLRLSCAASGNIFPTHRMGWYRQAPGKELEFVATISDGGSTNYADSVKGRFTISRDHAKNTVYLQMNSLKPEDTAVYYCAVLSLGRLRHYYWGQGTQVTVSS: low polyreactivity
- QVHLVESGGGLVQAGGSLRLSFAASGLIFSAYAMAWYRQAPGKERELVAAISSSGGRTYYADSVKGRFTISRDNAKNTVYLQMNSLKPEDTAVYYGNAASKNSGRYAYQNYDYWGQGTQVTVSS: high polyreactivity
- QVQLVESGGGLVQEGGSLRLSCAASGFTFRWYAMGWYRQPPRKERELFAVISSGGRTYYADSVKGRFTISRDNAKNTVYLEKNSLKPEDTAVYSCAAEFTDHYPDYWGYPLYDYWGQGTQVTVSS: high polyreactivity
- QVQLVESGGGLVQAGGSLRLSCAASGSTFSGYVMGWYRQAPGKERELVAAISWGGSRTYYADSVKGRFTISRDNAKNTVYLQMNSLKPEDTAVYYCNAYTSYGTFFYWAWPYYYWGQGTQVTVSS: high polyreactivity
- HVQLVESGAGLVQAGGSLRLSCAASGSTLRYYAMGWYRQAPGKERELVAAISTVGSTYYADSVKCRFTISRDNAKNTVNLQMNILKPEDTAVYYCAAEPWANTPGDAGSPFDYWGQGTQVTVSS: low polyreactivity
- QVQLVESGGGLVQAGGSLRLSCAASGRIFYRNAMGWYRQAPGKERELVAAISRSGGTTYYADSVKGRFTISRDNAKNTVYLQMNSLKPEDTAVYYCAALVPYSYPGYYYWGQGTQVTVSS: high polyreactivity
- QVQLLESGGGLVQAGGSLRLSCAASGLIVSEYAMGWYRQAPGKERELVAAIRSDGGSTYYADSVKGRFTISRDNAKNTVYLQMNSLKPEDTAVYYCNAPYRRSAKFRRYGYDYWGQGTQVTVSS: high polyreactivity
- QVQLVESGGGLVQAGGSLRLSCAASGFTFYGNAMGWYRQAPGKERELVAAISSGGSTNYADSVKGRFTISRDNAKNTVYLQMNSLKPEDTAVYYCAASYPGQVSFPYASIGFDYWGQGTQVTVSS: low polyreactivity
- QVQLVESGGGLVQAGGSLRLSCAASGSTFRYNAMGWYRQAPGKEREVVAAISRIGGTTYADSVKGRFTISRDNAKNTVYFQMNSLKPEDTAVYYCARANWGYYGPEYGYWGQGTQVTVSS: high polyreactivity
- QVQLEESGGGLVQAGGSLRLSCAASGRIFSPNVRGWYRKATGKERELVAGITSSGGSTYYADSVKGRLTISRDNAKNTVYLQMNSLKPEYTAVYYCAAPWVGTFVSGRGYYWGQGTQVTVSS: low polyreactivity
- QVQLVESAGGLVQAGGSLRLSCAASGSTLRAYAMGWYRQAPGKERELVAAISGSGDSTYYADSVKGRFTISRDNAKNTVYLQMNSLKPEDTAVYYCNKGLFSTGNIPYYLIVYLEYNYWGQGTQVTVSS: low polyreactivity
- QVQLVESGGGLVHAGGSLRLSCAASGSIFGWYAMGWYRQAPGKERELVASISWSGGGTYYADSVKGRFTISRDNAKNTVYLQMKSLKPEDTAVYYCAAVYIWRYGIRGGYYWGQGTQVSVSS: high polyreactivity
- QVQLVESGGGLVQAGGTLRLTCAASGTFYGNNMGWYIHAPGKQRELVATIRRSTGSTYYADSVKGRFTISRDNAKNTVYLQMNSLKPEDTAVYYCAAEIYSYYRLYWYDYRGQGTQVTVSS: high polyreactivity

----------
Experiment: yeast display, Sf9 membrane polyspecificity reagent, FACS + sequencing; frameworks hold sequencing errors
Measured Quantity: polyreactivity (PSR sort gate)

- QVQLVESGGGLVQAGGSLRLSCAASGSIFEYYAMGWYRQAPGKEREFVAAISDNGDSTYYADSVKGRFTISRDNAKNTVYLQMNSLKPEDTAVYYCAVRKAYQYGFYYWGQGTQLTVSS: low polyreactivity
- QVQLVESGGGLVQAGGSLRLSCAASGSIFTWYAMGWYRQAPGKERELVAAITTGGDTYYADSVKGRFTISRDNAKNTVYLQMNSLKPEDTAVYYCAATPTYWYLCSPYDYWGQGTQVTVSS: low polyreactivity
- QVQLVESGGGLVQAGGSLRLSCAASGSTFDSYAMGWYRPAPGKERELVAAITDSGSSTYYADSVKGRFTISRDNAKNTVYLQMNSLKPEDTAVYYCATYDYHGWSYYRYDYWGQGTQVTVSS: low polyreactivity
- QVQLEESGGGLVQAGGRLRLSCAASGGNFNYYPMGWYREAPGKERELVAAITRGGSTYYADSVKGRFTISRDNAKNTVYLQMNSLKPEDTAVYYCAAGWRRYDKSPLEGSWGQGTQVTLSS: high polyreactivity
- QVQLVESGGGLVQAGGSLRISCAASGRTIDSYAMGWYRQAPGKERELVAAISWGGGSTYYADSVKGRFTISRDNAKNTVYLQMNSLKPEDTAVYYCAARWNYTEFDYWGQGTQVTVSS: low polyreactivity
- QVQLVESGGGLVQAGGSLRLSCAASGRTFHYYVMGWYRQAPGKERELVAAISRSGGNTYYADSVKGRFTISLDNAKNTVYLQMNSLKPEDTAVYYCAAALSAYVKWDYYYWGQGTQVTVSS: low polyreactivity
- QVQLVESGGGLVQAGGSLRLSCAASGRTIGVYAMGWYRQAPGKERELVAAISWSGGTTYYADSVKGRFTISRDNAKYTVYLQMNSLKPEDTAVYYCAADSYTEVDYWGQGTQVTVSS: low polyreactivity
- QVQLVESGGGLVQAGGSLRLSCAASGRTFGEYAMGWYRQAPGKERELVAAISSAGSTYYADSVKGRFTISRDNAKNTVYLQMNSMKPDDTAVYYCASSRKYGYGYWGQRTQVTVSS: high polyreactivity
- QVQLVESGGRLVQAGGSLRLSCAASGSTFTVYAMGWYRQAPGKESELVAVITGSGGSTYYADSVKGRFTISRDNAKNTVYLQINSLKPEDTAVYYCAKEPGENWTVSWRDFDYWGQGTQVTVSS: low polyreactivity
- QVQLVESGGGLVQAGGSLRLSCAASGRTFNSNAMGWYRQAPGKERELVAAISGRTGRTYYADSVKGRFTISRDNAKNTVYLQMNSLKPEDTAVYYCATGTYAAAQGTRYYYWGQGTQVTVSS: high polyreactivity
- QVQLVESGGGLVQAGGSLRLSCAASGSTLPNNAMGWYRQAPGKERELVAAISSSGGSTYYADSVKGRFTISRDNAKNTVYLQMNSLKPEDTAVYYCAAVYSRGTYNYWGQGTQVTVSS: high polyreactivity
- QVQLVESGGGLVQAGGSLRLSCAASGITFTSYVMGWYRQAPGKERELVAAIRWSGGRTYYADSVKGRFTISRDNAKNTVYLQINSLKPEDTAVYYCAAYPSYYGDSGLRYDYWGQGTQVTVSS: high polyreactivity
- QDQLVESGGGLVQAGGSLRLSCAASGSIFYDKAMAWYRQAPGKEREFVASITNSGSTNYADSVKGRFTISRDNAKNTVYLQMNSLKAEDTAVYFCAAEVYVDYTGYSYFDYPYDYWGQGTHVTVSS: low polyreactivity
- QVQLVESGGGLVQAGGSLRLISAASGSTFDSYAMGWYRPAPGKERELVAAITRSVGSTYYADSVKGRFTISRDNAKNTVYLHMNSVKPEVTAVYYCAARGEWAIYVEFDYWGQGTQVTVSS: low polyreactivity
- QVQLVESGGGLVQAGGSLRLSCAASGSIFGPYAMGWYRQAPGKERELVAAITWTGGRTYYADSVKGRFTISRDNAKNTVYLQMISLNPEDTAVYYCAADYSPSTWYLYYTLFYYWGQGTQVTVSS: low polyreactivity
- QVQLVESVGGLVQAGGSLRLSCAASGSTFGTYAMGWYRQAPGKVSELVAAISNSGGSTYYADSVKGRFTISRDNAKNTVYLQMNSLKPEDTAVYYCNTDGLVRNGPFFSWGQGTQVTVSS: low polyreactivity
- QVQLVESGGGLVQAGGSLRISCAASGSTIGVNAMGLYRQAPGKEMELVAAISVSGGRTYYADSVKGRFTISRDYAKNTVYLQMNSLKPEDTAVYYCAATTYIWPYDYWGQGTQVNVSS: low polyreactivity
- QVQLVESWGGLVQAGGSLSLSCAASGSIFAANAMGWYRQAPGKERELVAAISWSGGSTYADSVKRRFTISRDNEKNTVYLQRNSLKPEDTAVYYCAADLCSQYKFGYCGQGTQVTVSS: low polyreactivity
- QVQLVESGGGLVQAGGSLRLSCAASGGTFPLYAMGWYRQAPGKARELVAAIRWSGGRTYYADSVKGRFTISRDNAMKTVYLQMNSLKPEDTAVYYCAADYDDGWGYDYWGQGTQVTVSS: high polyreactivity
- QVQLVESGGGLVQAGGSLRLSCASSGSTFYFNAMGWYRQAPGKERELVAAITSSGGTTYYADSVKGRFTISRDNAKNTVYLQMNSLKPEDTAVFYCADWFSAYYSLYRHRGYWGHGTQVTVSS: low polyreactivity
- QVQLVESGGGLVQAGGSLRLSCAASGFIFRYYTMGWYRQAPGKERELVAVITSGGTTYYADSVKGRFTISRDNAKNTVYLQMNSLKPEDTAGAADQWTIHRWATYGYWGQGTQVTVSS: low polyreactivity
